Just for reference, PubChem BioAssay (Tox21) is where these values come from.

Assay: qHTS assay to identify small molecule antagonists of the estrogen related receptor (ERR) signaling pathway from Tox21 library (AID 1224848); further: potency means the concentration at half of the fitted maximal effect; nearly all actives have a fitted effect of over 50% in size
Details: ERR reporter cell line, luciferase antagonist mode, 18 h; series mostly up to 92.4 µM
Records with an inconclusive call do not appear. Activity calls are given as the source filed them. The call rests on the fitted dose curve; in most records, active means well fitted inhibition curve with a large enough effect in the repeat runs; inconclusive means weak or mixed curves; inactive means no such curve, though single readings can be large or run the other way.

{"columns": ["compound", "Potency"],
 "data": [
  ["COc1cccc2c1C(=O)c1c(O)c3c(c(O)c1C2=O)C[C@@](O)(C(=O)CO)C[C@@H]3O[C@H]1C[C@H](N)[C@H](O[C@@H]2CCCCO2)[C@H](C)O1", "4.22 µM (active)"],
  ["CCCC(=O)OC[C@@H](OC(=O)CCC)[C@@H](OC(=O)CCC)[C@H](Cn1c2nc(=O)[nH]c(=O)c-2nc2cc(C)c(C)cc21)OC(=O)CCC", "29.8 µM (active)"],
  ["C[C@@H]1C[C@H]2[C@@H]3CCC4=CC(=O)C=C[C@]4(C)[C@@]3(Cl)[C@@H](O)C[C@]2(C)[C@@]1(OC(=O)c1ccco1)C(=O)CCl", "13.3 µM (active)"],
  ["N=C1C=CC(=C(c2ccc(N)cc2)c2ccc(N)cc2)C=C1", "2.17 µM (active)"]
]}
